FYI, the data here is from the RNAGym collection of RNA variant scans (doi:10.1073/pnas.2313332121).

B1: TPR t1 (parent)
chain: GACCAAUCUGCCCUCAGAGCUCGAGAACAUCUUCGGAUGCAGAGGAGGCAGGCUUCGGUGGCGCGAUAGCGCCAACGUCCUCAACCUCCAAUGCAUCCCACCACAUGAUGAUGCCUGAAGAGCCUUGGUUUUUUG

- Variants of: B1
- assayProtocol: polymerase ribozyme fitness, log enrichment relative to wild type (log ratio); higher = more active; in vitro selection for triplet polymerase activity
Quick reference: polymerase ribozyme fitness (log ratio) of the listed items.
metric: polymerase ribozyme fitness (log ratio)

1) C11U G17A U106A
-3.29
2) C49G C82G
-1.03
3) C79A U106C
-0.96
4) A27U A84G
-4.18
5) C11A G36A G61U G128A
-4.02
6) A43U G71U U116C G128C
-5.7
7) C11U C89G
-1.89
8) U54G C80G C123U
-4.41
9) C85U C86G
-1.13
10) C53U G71C
-0.133
11) G19A C70U C76G U81C
-4.57
12) A26U G52U C94G C114A
-7.17
13) C49A G51C A100C U132A
-5.52
14) U38A C73U C114A A121U
-1.65
15) A66U C73G
-1.75
16) U9A U32A C62U C114A
-4.44
17) A18C A50C G60A A84G U92A
-6.2
18) C49G G63U
-2.09
19) U9A C34U A37C A46U C56U G107C C114U G122A G127C
-7.05
20) C40U U78G C85G
-2.08
21) A5U U32C C124G G128U
-0.425
22) C13U C34U A111C C124U
-5.41
23) A74U U96C
-0.884
24) C53G U81A U131G
-0.825
25) C82U U87C G113A
-1.19
26) C8U A26U U59G
-2.5
27) G71A G113C
-2.6
28) G42C A43C C115A
-1.55
29) G63A C124G
0.684
30) C8G U30C C70U G113C U133A
-5.26
31) A37G C72U C88G C104U G113A
-4.89
32) U112A C115A U125G
0.414
33) C88G G117C U133A
-3.79
34) C13U G47C C72G G110A
-3.24
35) C15G C94A
-3.63
36) G10U C101A
-1.56
37) A5U G61U
-0.313
38) G25U G110U
-5.41
39) C53U C123U
1.1
40) A41G G113A C124A
-0.366
41) A29G A83C
-1.32
42) C72A G120U
0.158
43) C12A A41U G48A G77U A83G
-2.82
44) A37G U92C U106C G110A
-3.53
45) C56U U106A
0.0907
46) U81C U106A
0.0236
